Source: patent US20220282217A1

- system: HLA-A03:01 class I MHC molecule (human)
- test_details: competition with a radiolabeled reference peptide for purified MHC I, gel filtration; 'Affinity (nM)'
Below, each entry is listed with its recorded pIC50.
For clarity, pIC50 is expressed as the negative log10 of concentration in mol/L.

1) MANGSLLNY [BTK, C481S peptide MANGSLLNY]
7.45

Now look at this one.
IN: Using the record for YMANGSLLNY [BTK, C481S peptide YMANGSLLNY] , report its pIC50.
OUT: 7.02
